tested on: RXF 631; test: NCI tumour cell line growth inhibition, 48 h
The source made the active and inactive calls. No stated cut-off is given here; in the data, active = GI50 up to about 1.1 µM and inactive = higher.
Exercise: for every item that follows, state its recorded GI50.

* O=C1C2C3C=CC(C2C(=O)N1CO)C1C2C(=O)N(CO)C(=O)C2C31 (stereo not given) | > 54.6 µM (inactive)
* CC1=CC2CC(C)C1(C)CCc1ccoc12 (stereo not given) | > 100 µM (inactive)

Items follow; give GI50 for each.
1. CN1c2ccccc2N(C)C23N(C)c4ccccc4N(C)C12N(C)c1ccccc1N3C (stereo not given)
2. CN(C)CC1CC/C(=C\c2ccc(Cl)cc2)C1=O (stereo not given)

> 100 µM (inactive)
20.4 µM (inactive)

Items follow; give GI50 for each.
1. COC(=O)/C(C=O)=C/Sc1ccccc1
2. O=CC[C@H]1CCc2ccccc2C12CCC(=O)CC2
3. Cc1cc2nc(O)c(CCC(=O)O)nc2cc1C

1. 14.9 µM (inactive)
2. > 100 µM (inactive)
3. > 100 µM (inactive)

Items follow; give GI50 for each.
1. CC(C)(C)/N=C/N1C=Cc2nc3ccccc3cc2C1
2. COc1ccc(/C(Cl)=C(\C=O)c2ccc(Cl)cc2)cc1
3. O=C(CC1(O)C(=O)Nc2ccc(Br)cc21)c1cccc([N+](=O)[O-])c1 (stereo not given)

> 100 µM (inactive)
3.64 µM (inactive)
> 100 µM (inactive)
